Tested on: uninfected HeLa-ACE2 cells
condition context: Hela-ACE2 Uninfected Cell Toxicity
Counter-ions that a name gives are not always drawn.
attribute measured: Data Mode

Cc1ccc(CNC(=O)C2CCN([C@H](C)c3cccc4ccccc34)CC2)cc1 ... inactive
C[C@@H](c1cccc2ccccc12)N1CCC(C(=O)NCC2CCCCC2)CC1 (racemic) ... inactive
CCC(CC)COC(=O)[C@H](C)N[P@](=O)(OC[C@H]1O[C@@](C#N)(c2ccc3c(N)ncnn23)[C@H](O)[C@@H]1O)Oc1ccccc1 [Remdesivir, reference compound] ... decreasing
COc1ccc(C[C@H](N)C(=O)N[C@H]2[C@@H](O)[C@H](n3cnc4c(N(C)C)ncnc43)O[C@@H]2CO)cc1 [Puromycin dihydrochloride, reference compound] ... decreasing
Cc1ccc(CNC(=O)C2CCN([C@@H](C)c3cccc4ccccc34)CC2)cc1 (stereo in doubt) ... inactive
Cc1cccc(/C=N/Nc2cc(N3CCOCC3)nc(OCCc3ccccn3)n2)c1 [Apilimod, reference compound] ... decreasing

---

Test system: uninfected HeLa-ACE2 cells
condition context: Hela-ACE2 Uninfected Cell Toxicity, curve fit
Structures can show the parent of a compound that is named as a salt.
attribute measured: Sinf

C[C@H](c1cccc2ccccc12)N1CCC(C(=O)NCc2ccc(Cl)cc2)CC1 ... -100
Cc1cccc(/C=N/Nc2cc(N3CCOCC3)nc(OCCc3ccccn3)n2)c1 [Apilimod, reference compound] ... -100
CC(c1cccc2ccccc12)N1CCC(C(=O)NCc2ccc(Cl)cc2)CC1 (stereo not drawn) ... -100
CCC(CC)COC(=O)[C@H](C)N[P@](=O)(OC[C@H]1O[C@@](C#N)(c2ccc3c(N)ncnn23)[C@H](O)[C@@H]1O)Oc1ccccc1 [Remdesivir, reference compound] ... -53.8717
COc1ccc(CNC(=O)C2CCN(C(C)c3cccc4ccccc34)C2)cc1 (stereo not drawn) ... -100
COc1ccc(C[C@H](N)C(=O)N[C@H]2[C@@H](O)[C@H](n3cnc4c(N(C)C)ncnc43)O[C@@H]2CO)cc1 [Puromycin dihydrochloride, reference compound] ... -99.1112

---

measurement protocol: Human liver microsomal stability assay
condition context: human, microsomes, pH 7.4
attribute measured: half-life at 0.5 μM (min)

COc1ccc(CNC(=O)C2CCN(C(C)c3cccc4ccccc34)C2)cc1 (stereo not shown) ... 21.7

---

Known microsomal CLint at 0.5 μM of a selection of molecules
measurement protocol: Mouse liver microsomal stability assay
condition context: CD1, mouse, microsomes, pH 7.4
attribute measured: microsomal CLint at 0.5 μM (µL/min/mg)

COc1ccc(CNC(=O)C2CCN(C(C)c3cccc4ccccc34)CC2)cc1 (stereo not drawn) [MMV1634397] ... 129
COc1ccc(CNC(=O)C2CCN(C(C)c3cccc4ccccc34)C2)cc1 (stereo not drawn) [Compound 17] ... 270
COc1ccc(CC(=O)N2CCN([C@@H](C)c3cccc4ccccc34)CC2)cc1 [Compound 8] ... 348

---

experimental target: PL^pro (Severe acute respiratory syndrome coronavirus 2, UniProt P0DTD1)
condition context: 20 μM compound, 5 μM enzyme, average of triplicates with SD
Reported ΔT m values are given for each entry in this list.
attribute measured: ΔT m (°C)

CC[C@@H](C)N1CCC(C(=O)NCc2ccc(OC)cc2)CC1 (racemic) ... 1.20
COc1ccc(CNC(=O)C2CCN(Cc3cccc4ccccc34)CC2)cc1 ... 0.40
C[C@@H](c1cccc2ccccc12)N1CCC(C(=O)NCC2CCCCC2)CC1 (racemic) ... 0.90
COc1ccc(CC(=O)N2CCN([C@@H](C)c3cccc4ccccc34)CC2)cc1 ... 0.28
COc1ccc(CNC(=O)[C@H]2CCN([C@H](C)c3cccc4ccccc34)C2)cc1 ... 0.40
COc1ccc(CNC(=O)[C@@H]2CCN([C@@H](C)c3cccc4ccccc34)C2)cc1 ... 0.40

---

measurement protocol: in vitro
condition context: PAMPA
Rule: Papp at 5 h, 10 μM below 0.8 ×10⁻⁶ cm/s gives 1.0. Equal to or above 0.8 ×10⁻⁶ cm/s gives 0.0.

COc1ccc(CNC(=O)[C@@H]2CCN([C@@H](C)c3cccc4ccccc34)C2)cc1 [Compound 15] ... 1.0
COc1ccc(CNC(=O)C2CCN(Cc3cccc4ccccc34)CC2)cc1 [Compound 1] ... 0.0
C[C@@H](c1cccc2ccccc12)N1CCC(C(=O)NCC2CCCCC2)CC1 (racemic) [Compound 11] ... 1.0
COc1ccc(CNC(=O)[C@@H]2CCN([C@H](C)c3cccc4ccccc34)C2)cc1 (stereo in doubt) [Compound 18] ... 1.0
Cc1ccc(CNC(=O)C2CCN([C@@H](C)c3cccc4ccccc34)CC2)cc1 (stereo in doubt) [Compound 5] ... 1.0
C[C@@H](c1cccc2ccccc12)N1CCC(C(=O)NCc2ccncc2)CC1 (racemic) [Compound 10] ... 0.0
CC(c1cccc2ccccc12)N1CCC(C(=O)NCc2ccc(Cl)cc2)CC1 (centres unmarked) [Compound 13] ... 1.0
C[C@H](c1cccc2ccccc12)N1CCC(C(=O)NCc2ccc(Cl)cc2)CC1 [Compound 12] ... 1.0
CC[C@@H](C)N1CCC(C(=O)NCc2ccc(OC)cc2)CC1 (racemic) [Compound 14] ... 1.0
COc1ccc(CNC(=O)C2CCN([C@H](C)c3ccccc3)CC2)cc1 [Compound 3] ... 0.0

---

measurement protocol: Kinetic solubility
condition context: 25 °C, pH 2, aqueous buffer, kinetic from dmso stock
attribute measured: solubility kinetic at 24 h

COc1ccc(CC(=O)N2CCN([C@@H](C)c3cccc4ccccc34)CC2)cc1 [Compound 8] ... > 22.9 µg/mL
COc1ccc(CNC(=O)C2CCN(C(C)c3cccc4ccccc34)CC2)cc1 (stereo not drawn) [MMV1634397] ... > 24.6 µg/mL
COc1ccc(CNC(=O)C2CCN(C(C)c3cccc4ccccc34)C2)cc1 (stereo not drawn) [Compound 17] ... > 24 µg/mL

---

measurement protocol: Human liver microsomal stability assay
condition context: human, liver microsomes, pH 7.4
attribute measured: log10(half-life at 0.5 μM) (log10 of the value in min)

CC(c1cccc2ccccc12)N1CCC(C(=O)NCc2ccc(Cl)cc2)CC1 (stereo not shown) [Compound 13] ... 1.18
COc1ccc(CNC(=O)C2CCN(Cc3cccc4ccccc34)CC2)cc1 [Compound 1] ... 1.37
COc1ccc(CNC(=O)[C@H]2CCN([C@H](C)c3cccc4ccccc34)C2)cc1 [Compound 16] ... 1.04
COc1ccc(CNC(=O)C2CCN([C@@H](C)c3ccccc3)CC2)cc1 [Compound 2] ... 2.06
COc1ccc(CNC(=O)C2CCN([C@H](C)c3ccccc3)CC2)cc1 [Compound 3] ... 2.36
CC[C@@H](C)N1CCC(C(=O)NCc2ccc(OC)cc2)CC1 (racemic) [Compound 14] ... 2.48
C[C@@H](c1cccc2ccccc12)N1CCC(C(=O)NCc2ccncc2)CC1 (racemic) [Compound 10] ... 1.56

---

Each record here notes measured microsomal CLint at 0.5 μM.
measurement protocol: in vitro
condition context: CD1, mouse, microsomes, pH 7.4
attribute measured: microsomal CLint at 0.5 μM (µL/min/mg)

C[C@@H](c1cccc2ccccc12)N1CCC(C(=O)NCc2ccncc2)CC1 (racemic) ... 110
COc1ccc(CNC(=O)[C@H]2CCN([C@H](C)c3cccc4ccccc34)C2)cc1 ... 267
CC(c1cccc2ccccc12)N1CCC(C(=O)NCc2ccc(Cl)cc2)CC1 (centres unmarked) ... 302
COc1ccc(CNC(=O)[C@@H]2CCN([C@@H](C)c3cccc4ccccc34)C2)cc1 ... 742
CC[C@@H](C)N1CCC(C(=O)NCc2ccc(OC)cc2)CC1 (racemic) ... 65.6
COc1ccc(CNC(=O)[C@@H]2CCN([C@H](C)c3cccc4ccccc34)C2)cc1 (stereo in doubt) ... 582
COc1ccc(CNC(=O)C2CCN(Cc3cccc4ccccc34)CC2)cc1 ... 146
COc1ccc(CC(=O)NC2CCN([C@H](C)c3cccc4ccccc34)CC2)cc1 ... 171

---

Tested on: HeLa-ACE2 cells
measurement protocol: cells
condition context: Homo sapiens, HeLa-ACE2, read-out: Log AC50 (converted)
Counter-ions that a name gives are not always drawn.
Entries and their measured AC50 follow.
attribute measured: AC50 (nM)

CCC(CC)COC(=O)[C@H](C)N[P@](=O)(OC[C@H]1O[C@@](C#N)(c2ccc3c(N)ncnn23)[C@H](O)[C@@H]1O)Oc1ccccc1 [Remdesivir, reference compound] ... 102
COc1ccc(C[C@H](N)C(=O)N[C@H]2[C@@H](O)[C@H](n3cnc4c(N(C)C)ncnc43)O[C@@H]2CO)cc1 [Puromycin dihydrochloride, reference compound] ... 1140

---

measurement protocol: Plasma stability
condition context: female, BALB/c, mouse, plasma, pH 7.4
Rule: half-life at 2 μM under 6 h gives n, otherwise y.

Cc1ccc(CNC(=O)C2CCN([C@H](C)c3cccc4ccccc34)CC2)cc1 [Compound 4] ... y
COc1ccc(CNC(=O)[C@@H]2CCN([C@H](C)c3cccc4ccccc34)C2)cc1 (stereo in doubt) [Compound 18] ... y
C[C@H](c1cccc2ccccc12)N1CCC(C(=O)NCc2ccc(Cl)cc2)CC1 [Compound 12] ... y
COc1ccc(CC(=O)NC2CCN([C@H](C)c3cccc4ccccc34)CC2)cc1 [Compound 6] ... y
COc1ccc(CNC(=O)C2CCN(C(C)c3cccc4ccccc34)C2)cc1 (centres unmarked) [Compound 17] ... y
COc1ccc(CNC(=O)C2CCN(Cc3cccc4ccccc34)CC2)cc1 [Compound 1] ... n
COc1ccc(CNC(=O)[C@H]2CCN([C@H](C)c3cccc4ccccc34)C2)cc1 [Compound 16] ... y
COc1ccc(CNC(=O)[C@@H]2CCN([C@@H](C)c3cccc4ccccc34)C2)cc1 [Compound 15] ... y
C[C@@H](c1cccc2ccccc12)N1CCC(C(=O)NCC2CCCCC2)CC1 (racemic) [Compound 11] ... n
COc1ccc(CNC(=O)C2CCN(C(C)c3cccc4ccccc34)CC2)cc1 (centres unmarked) [MMV1634397] ... y
COc1ccc(CC(=O)NC2CCN([C@@H](C)c3cccc4ccccc34)CC2)cc1 [Compound 7] ... y
CC[C@@H](C)N1CCC(C(=O)NCc2ccc(OC)cc2)CC1 (racemic) [Compound 14] ... n
Cc1ccc(CNC(=O)C2CCN([C@@H](C)c3cccc4ccccc34)CC2)cc1 (stereo in doubt) [Compound 5] ... n
